# System: Plasmodium falciparum
# ASSAY_REMARKS: Antiplasmodial activity against chloroquine-sensitive IEF stage of Plasmodium falciparum NF54 infected in human RBC assessed as reduction in [3H]hypoxanthine incorporation preincubated for 48 hrs followed by [3H]hypoxanthine addition measured after 24 hrs by liquid scintillation counting method
# Type: functional
RESULT_TYPE: IC50 (µM)

CC(C)=CCC/C(C)=C/CC/C(C)=C/C1Oc2c(cc(O)c3c2-c2cc(O)ccc2OC3/C=C(\C)CC/C=C(\C)CCC=C(C)C)C2=C1C(=O)C=CC2=O (stereo unspecified) ... 33.9
CC(C)=CCC/C(C)=C/CC/C(C)=C/Cc1cc2c(cc1O)C1=C(C(=O)C3=C(C1=O)S(=O)(=O)CCN3)C(/C=C(\C)CC/C=C(\C)CCC=C(C)C)O2 (stereo unspecified) ... 7.4

[a] CC(C)=CCC/C(C)=C/CC/C(C)=C/Cc1cc2c(cc1O)C1=C(C(=O)C3=C(NCCS3(=O)=O)C1=O)C(/C=C(\C)CC/C=C(\C)CCC=C(C)C)O2 (stereo unspecified)
[b] CC(C)=CCc1cc(O)cc2c1OC(C=C(C)C)C1=C2C(=O)C2=C(NCCS2(=O)=O)C1=O (stereo unspecified)
IN: Hi there! Just curious which has the higher IC50 between a and b . Answer by quoting the chosen item's label.
OUT: a

[A] CC(C)=CCC/C(C)=C/CC/C(C)=C/Cc1cc(O)cc2c1OC(/C=C(\C)CC/C=C(\C)CCC=C(C)C)C1=C2C(=O)C2=C(C1=O)S(=O)(=O)CCN2 (stereo unspecified)
[B] CC(C)=CCc1cc2c(cc1O)C1=C(C(=O)C3=C(C1=O)S(=O)(=O)CCN3)C(C=C(C)C)O2 (stereo unspecified)
[C] COC1=CC(=O)C2=C(C1=O)c1cc(O)ccc1OC2/C=C(\C)CC/C=C(\C)CCC=C(C)C (stereo unspecified)
IN: Kindly order the items shown according to IC50, from the highest value down. A complete answer lists every label in the requested sequence.
OUT: C, A, B

[I] CC(C)=CCC/C(C)=C/CC/C(C)=C/Cc1cc(O)cc2c1OC(/C=C(\C)CC/C=C(\C)CCC=C(C)C)C1=C2C(=O)C2=C(NCCS2(=O)=O)C1=O (stereo unspecified)
[II] CC(C)=CCc1cc2c(cc1O)C1=C(C(=O)C3=C(NCCS3(=O)=O)C1=O)C(C=C(C)C)O2 (stereo unspecified)
[III] CC(C)=CCC/C(C)=C/CC/C(C)=C/C1Oc2ccc(O)cc2C2=C1C(=O)C=CC2=O (stereo unspecified)
IN: Order by IC50, ascending. Form entry: ranked labels (order as requested).
OUT: I, II, III
(I: 2.9 µM, II: 4.8 µM, III: 7.2 µM)
